assayOverview: clinical
experimentalParameters: human, in vivo, 130 mg/m2, Tmax, day 1
endpointName: Tmax (h)

{"columns": ["compoundStructure", "unitInfo", "reading"],
 "data": [
  ["CNC(=O)c1cc(Oc2ccc(NC(=O)Nc3ccc(Cl)c(C(F)(F)F)c3)cc2)ccn1", "h", 7.9]
]}

* * *

assayOverview: clinical
experimentalParameters: human, in vivo, po, 150 mg/m2, AUC0–12h, steady state
endpointName: AUC(0-t) (ng·h/mL)

{"columns": ["compoundStructure", "unitInfo", "reading"],
 "data": [
  ["CNC(=O)c1cc(Oc2ccc(NC(=O)Nc3ccc(Cl)c(C(F)(F)F)c3)cc2)ccn1", "ng·h/mL", 49700]
]}
